- System: Bacillus subtilis
- assay_protocol: cleaved RNA product abundance (RNA/gDNA barcode ratio) relative to median wild-type variant (ratio to wild type); higher = more accumulation of the downstream cleavage product
- run_conditions: experiment (reporter, strain, medium): exp 4a: truncated aprE reporter, strain BJT201 with 2% xylose (RNase J1 expressed); cleavage site: cggR-gapA (positions -7 to +36 mutated)
measurement_kind: cleaved RNA product abundance
Answer field: number only, no words.

A selection of reference data follows.
Exercise: Specify reported cleaved RNA product abundance for the sequence shown: ACAGACGAAGGAGCCGCAAAGAAGTTATTAAGTGATAAATAATCCCTCAATATAAATATCTCTCACTTATTTAAA
Solution: 0.103

Exercise: Specify reported cleaved RNA product abundance for the sequence shown: ACAGACGAAGGAGCCGCAAAGAAATTAATAAGGGATGAATAATCCCTCAATATAAATATCTCTCACTTATTTAAA
Solution: 0.245

Exercise: Specify reported cleaved RNA product abundance for the sequence shown: ACAGACGAAGGAGCCGCAAAGAAGTTAATAAGGGATGAATAATCCCTTAATATAAATATCTCTCACTTATTTAAA
Solution: 0.519

Next item in the queue.
Exercise: Specify reported cleaved RNA product abundance for the sequence shown: ACAGACGAAGGAGCCGCAAAGAAGTTATTAATGGATGAATAATCCCCCAATATAAATATCTCTCACTTATTTAAA
Solution: 0.122

====

- Tested on: Bacillus subtilis
- assay_protocol: cleaved RNA product abundance (RNA/gDNA barcode ratio) relative to median wild-type variant (ratio to wild type); higher = more accumulation of the downstream cleavage product
- run_conditions: experiment (reporter, strain, medium): exp 4a: truncated aprE reporter, strain BJT201 with 2% xylose (RNase J1 expressed); cleavage site: cggR-gapA (positions -7 to +36 mutated)
measurement_kind: cleaved RNA product abundance
Answer field: number only, no words.

A selection of reference data follows.
Exercise: Under Bacillus subtilis: report cleaved RNA product abundance of ACAGACGAAGGAGCCGCAAAGAAGTTATTAAGGGATGACTAATCCGTCAATATAAATATCTCTCACTTATTTAAA .
Solution: 0.213

Exercise: Under Bacillus subtilis: report cleaved RNA product abundance of ACAGACGAAGGAGCCGCAAAGAAATTATTAAGGGCTGAATAATCCCTCAATATAAATATCTCTCACTTATTTAAA .
Solution: 0.498

Exercise: Under Bacillus subtilis: report cleaved RNA product abundance of ACAGACGAAGGAGCCGCAAAGAAGTTATTAAGGCATGAATAATCCCTCAATATAAATAACTCTCACTTATTTAAA .
Solution: 0.111

Exercise: Under Bacillus subtilis: report cleaved RNA product abundance of ACAGACGAAGGAGCCGCAAAGAAGTTATTAAGGGATTAATAATCCCTCACTATAAATATCTCTCACTTATTTAAA .
Solution: 0.26

Exercise: Under Bacillus subtilis: report cleaved RNA product abundance of ACAGACGAAGGAGCCGCAAAGAAGTTATAAAGGGATGAATAATCCCTCAATATTAATATCTCTCACTTATTTAAA .
Solution: 0.105

Further cases:
Exercise: Under Bacillus subtilis: report cleaved RNA product abundance of ACAGACGAAGGAGCCGCAAAGAAGTTATTAAGGGTTGAATAATCTCTCAATATAAATATCTCTCACTTATTTAAA .
Solution: 0.244

Exercise: Under Bacillus subtilis: report cleaved RNA product abundance of ACAGACGAAGGAGCCGCAAAGAGGTTATTAAGGGATGAATAATCCCTAAATATAAATATCTCTCACTTATTTAAA .
Solution: 0.386

Exercise: Under Bacillus subtilis: report cleaved RNA product abundance of ACAGACGAAGGAGCCGCAAAGAAGTAATTAAGGGATGAATAACCCCTCAATATAAATATCTCTCACTTATTTAAA .
Solution: 0.158

Exercise: Under Bacillus subtilis: report cleaved RNA product abundance of ACAGACGAAGGAGCCGCAAATAAGTTATTAAGGGATGAATAATCCCTAAATATAAATATCTCTCACTTATTTAAA .
Solution: 0.865

Exercise: Under Bacillus subtilis: report cleaved RNA product abundance of ACAGACGAAGGAGCCGCAAAGAAGTTATTAAGGGATTAATCATCCCTCAATATAAATATCTCTCACTTATTTAAA .
Solution: 1.2

Exercise: Under Bacillus subtilis: report cleaved RNA product abundance of ACAGACGAAGGAGCCGCAAAGAAGTTATTAAGGGATATATAATCCCTCAATATAAATATCTCTCACTTATTTAAA .
Solution: 0.738

Exercise: Under Bacillus subtilis: report cleaved RNA product abundance of ACAGACGAAGGAGCCGCAAAGAAGTAATTAAGGGATGAATAATCCTTCAATATAAATATCTCTCACTTATTTAAA .
Solution: 0.187

Exercise: Under Bacillus subtilis: report cleaved RNA product abundance of ACAGACGAAGGAGCCGCAAAGAAGTTATTAAGGGATGAATAATCCCTAAATATAAATATCTCTCACTATTTAAAG .
Solution: 0.705

Exercise: Under Bacillus subtilis: report cleaved RNA product abundance of ACAGACGAAGGAGCCGCACAGAAGTTATTAAGGGATGAATAATCACTCAATATAAATATCTCTCACTTATTTAAA .
Solution: 0.125

Exercise: Under Bacillus subtilis: report cleaved RNA product abundance of ACAGACGAAGGAGCCGCAAAGAAGTTATTAAGGCATGAATAATCCCTCAAGATAAATATCTCTCACTTATTTAAA .
Solution: 0.142

Exercise: Under Bacillus subtilis: report cleaved RNA product abundance of ACAGACGAAGGAGCCGCAAAGAAGTTTTTAAGGGATGAATAATCCCGCAATATAAATATCTCTCACTTATTTAAA .
Solution: 0.137

Exercise: Under Bacillus subtilis: report cleaved RNA product abundance of ACAGACGAAGGAGCCGCAAAGAAGTTGTTAAAGGATGAATAATCCCTCAATATAAATATCTCTCACTTATTTAAA .
Solution: 0.0874

Exercise: Under Bacillus subtilis: report cleaved RNA product abundance of ACAGACGAAGGAGCCGCAAAAAGGTTATTAAGGGATGAATAATCCCTCAATATAAATATCTCTCACTTATTTAAA .
Solution: 1.68

Exercise: Under Bacillus subtilis: report cleaved RNA product abundance of ACAGACGAAGGAGCCGCAAAGAAGTTATTAAGGGATGAATATTCCCTCATTATAAATATCTCTCACTTATTTAAA .
Solution: 0.316

Exercise: Under Bacillus subtilis: report cleaved RNA product abundance of ACAGACGAAGGAGCCGCAAAGAAGTTATTAATGGATGAATAATCCCTCAAAATAAATATCTCTCACTTATTTAAA .
Solution: 0.151

====

- Test system: Bacillus subtilis
- assay_protocol: cleaved RNA product abundance (RNA/gDNA barcode ratio) relative to median wild-type variant (ratio to wild type); higher = more accumulation of the downstream cleavage product
- run_conditions: experiment (reporter, strain, medium): exp 8a: truncated aprE reporter, strain BJT201 with 2% xylose (RNase J1 expressed); cleavage site: glnRA (positions -5 to +31 mutated)
# Lookup of reported cleaved RNA product abundance keyed by entry
Answer field: number only, no words.

A selection of reference data follows.
Exercise: Specify reported cleaved RNA product abundance for the sequence shown: CGACATGTCCCGCTTCTTTCATTAATCCGTTAGCAACTCTTTTGATATATACATTTACCTTTTAAGAGGAGGAAT
Solution: 0.51

Exercise: Specify reported cleaved RNA product abundance for the sequence shown: CGACATGTCCCGCTTCTTTCATTAATCCTTTAGCAACTGATTTGCTATATACATTTACCTTTTAAGAGGAGGAAT
Solution: 0.509

Exercise: Specify reported cleaved RNA product abundance for the sequence shown: CGACATGTCCCGCTTCTTTCATTACTACGTTAGCAACTGTTTTGCTATATACATTTACCTTTTAAGAGGAGGAAT
Solution: 2.07

Further cases:
Exercise: Specify reported cleaved RNA product abundance for the sequence shown: CGACATGTCCCGCTTCTTTCATTAATCTGTTAGCAACTGTTTTGCTATATACATTTACTTTTTAAGAGGAGGAAT
Solution: 1.68

Exercise: Specify reported cleaved RNA product abundance for the sequence shown: CGACATGTCCCGCTTCTTTCATTAATCCGTTAGCAACTATTTTGCTATATACATTTACCTTTTAAGAGGAGGAAT
Solution: 1.34

Exercise: Specify reported cleaved RNA product abundance for the sequence shown: CGACATGTCCCGCTTCTTTCATTAATCAGTTAGCAACTGTTTTGCTATATACATTTACCCTTTAAGAGGAGGAAT
Solution: 1.22

Exercise: Specify reported cleaved RNA product abundance for the sequence shown: CGACATGTCCCGCTTCTTTCATTAATCCGTTAGAAACTGTTTTGCTAAATACATTTACCTTTTAAGAGGAGGAAT
Solution: 0.241

Exercise: Specify reported cleaved RNA product abundance for the sequence shown: CGACATGTCCCGCTTCTTTCATTAATCCGTTAGCAACTGTTTTGCTATATACGTTTACCTTTTAAGAGGAGGAAT
Solution: 0.361

Exercise: Specify reported cleaved RNA product abundance for the sequence shown: CGACATGTCCCGCTTCTTTCATTATTCTGTTAGCAACTGTTTTGCTATATACATTTACCTTTTAAGAGGAGGAAT
Solution: 1.94

This collection of values is drawn from the supplement of paper PMC11780869.
